Molecular target: UniProt Q13464
Sequence (Q13464 whole entry): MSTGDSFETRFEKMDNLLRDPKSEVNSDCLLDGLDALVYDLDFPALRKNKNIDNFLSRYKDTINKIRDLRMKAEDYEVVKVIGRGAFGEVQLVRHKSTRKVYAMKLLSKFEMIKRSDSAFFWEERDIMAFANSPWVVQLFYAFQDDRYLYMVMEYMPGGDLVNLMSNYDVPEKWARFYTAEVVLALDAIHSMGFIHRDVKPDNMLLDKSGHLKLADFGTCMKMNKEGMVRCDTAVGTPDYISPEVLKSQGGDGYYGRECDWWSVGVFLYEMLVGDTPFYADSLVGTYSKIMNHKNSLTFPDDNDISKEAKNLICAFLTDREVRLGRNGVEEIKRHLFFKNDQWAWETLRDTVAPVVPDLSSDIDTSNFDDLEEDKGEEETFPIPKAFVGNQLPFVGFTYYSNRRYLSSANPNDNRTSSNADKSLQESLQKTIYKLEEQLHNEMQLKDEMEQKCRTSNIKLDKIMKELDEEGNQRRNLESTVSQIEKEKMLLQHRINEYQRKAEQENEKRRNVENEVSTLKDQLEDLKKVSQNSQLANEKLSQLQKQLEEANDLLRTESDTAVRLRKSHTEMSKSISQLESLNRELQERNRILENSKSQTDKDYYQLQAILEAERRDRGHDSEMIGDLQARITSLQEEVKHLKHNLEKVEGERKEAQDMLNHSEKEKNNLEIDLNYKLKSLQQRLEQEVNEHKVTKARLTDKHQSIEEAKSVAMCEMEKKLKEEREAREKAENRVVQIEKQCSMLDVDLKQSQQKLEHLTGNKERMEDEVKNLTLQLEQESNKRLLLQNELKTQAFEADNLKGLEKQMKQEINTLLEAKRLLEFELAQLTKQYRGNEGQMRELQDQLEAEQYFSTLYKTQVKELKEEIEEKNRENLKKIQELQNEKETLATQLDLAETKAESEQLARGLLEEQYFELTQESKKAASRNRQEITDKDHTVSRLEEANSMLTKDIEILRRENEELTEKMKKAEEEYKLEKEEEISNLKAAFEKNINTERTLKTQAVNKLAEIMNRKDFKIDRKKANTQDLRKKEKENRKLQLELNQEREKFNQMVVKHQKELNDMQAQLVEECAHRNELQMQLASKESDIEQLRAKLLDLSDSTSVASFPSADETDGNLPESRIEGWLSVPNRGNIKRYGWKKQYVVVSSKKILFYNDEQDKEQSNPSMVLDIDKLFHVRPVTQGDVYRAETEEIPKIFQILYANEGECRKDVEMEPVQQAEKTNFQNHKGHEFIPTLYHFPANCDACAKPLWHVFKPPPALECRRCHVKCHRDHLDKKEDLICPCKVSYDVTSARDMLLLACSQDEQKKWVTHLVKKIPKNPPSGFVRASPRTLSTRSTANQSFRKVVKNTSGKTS
Assay: ROCK-I inhibition assay (radioactive enzyme assay, MBP substrate)
Format: biochemical
Conditions: Table 6; enzyme inhibition data (Ki)
Procedure: Compounds were screened for their ability to inhibit ROCK using a standard radioactive enzyme assay. Assays were carried out in a solution containing 100 mM HEPES (pH 7.5), 10 mM MgCl2, 25 mM NaCl, 2 mM DTT, and 1.5% DMSO. Final substrate concentrations in the assay were 13 μM [γ-^33P] […] 50 μl of Optima Gold scintillation fluid (Perkin Elmer) was added and the plates were counted on a Top Count (Perkin Elmer). […]
pKi: −log10 of the molar value.
value.kind: pKi

molecule | pKi
O=C(NCC(F)(F)F)c1cc(-c2c(Cl)cnc3[nH]ccc23)c[nH]1 [compound 276] | 5.30 to 6.30
Clc1cnc2[nH]ccc2c1NC1CCCN(Cc2ccccc2)C1 (stereo not drawn) [compound 157] | > 6.30
O=C(CCNc1nc(-c2ccnc3[nH]ccc23)ncc1F)NCC(F)(F)F [compound 193] | < 5.40

Input: Form field: reported pKi of O=C(NCC(F)(F)F)c1cc(-c2ccnc3[nH]ccc23)c[nH]1 [compound 259]
Output: > 6.30

Input: Form field: reported pKi of CCOc1ccc(Cl)cc1-c1ccnc2[nH]ccc12 [compound 237]
Output: 5.30 to 6.30

Input: Form field: reported pKi of O=C(c1csc(-c2ccnc3[nH]ccc23)n1)N(CCC(F)(F)F)CC1CC1 [compound 402]
Output: > 6.30

Input: Form field: reported pKi of CCC(CC)NC(=O)c1cc(-c2ccnc3[nH]ccc23)c[nH]1 [compound 284]
Output: > 6.30

Input: Form field: reported pKi of CCCCN(CC#N)C(=O)c1ccc(-c2ccnc3[nH]ccc23)s1 [compound 317]
Output: > 6.30

Input: Form field: reported pKi of CCCN(CCC#N)C(=O)c1cc(-c2ccnc3[nH]ccc23)c[nH]1 [compound 302]
Output: > 6.30

Input: Form field: reported pKi of O=C(NCC(F)F)c1cc(-c2ccnc3[nH]ccc23)c[nH]1 [compound 292]
Output: > 6.30

Input: Form field: reported pKi of O=C(O)c1ccccc1-c1ccnc2[nH]ccc12 [compound 238]
Output: < 5.40

Input: Form field: reported pKi of O=C(NCC(F)(F)F)[C@H]1CCCN1c1nc(-c2ccnc3[nH]ccc23)ncc1F [compound 198]
Output: < 5.40

Input: Form field: reported pKi of O=C(NCC(F)(F)F)c1cccc(-c2ccnc3[nH]ccc23)c1 [compound 251]
Output: > 6.30

Input: Form field: reported pKi of CC(C)(C)OC(=O)n1cccc1-c1c(Cl)cnc2[nH]ccc12 [compound 143]
Output: < 5.40

Input: Form field: reported pKi of CN(CC(F)(F)F)C(=O)c1cc(-c2c(Cl)cnc3[nH]ccc23)c[nH]1 [compound 360]
Output: 5.30 to 6.30

Input: Form field: reported pKi of CCNC(=O)c1cccc(-c2ccnc3[nH]ccc23)c1 [compound 255]
Output: 5.30 to 6.30

Input: Form field: reported pKi of CCCCN(CCC#N)C(=O)c1cc(-c2c(F)cnc3[nH]ccc23)c[nH]1 [compound 397]
Output: > 6.30

Input: Form field: reported pKi of N#CCCN(Cc1cccnc1)C(=O)c1cc(-c2ccnc3[nH]ccc23)c[nH]1 [compound 299]
Output: > 6.30
